- Test system: LOX IMVI melanoma
- PROCEDURE_TEXT: NCI-60 one-dose screen, 48 h (100 = growth as untreated, 0 = no growth, -100 = all killed)
- MEASUREMENT_SETUP: 10 µM
About 83,000 compounds went through this panel and 20% of them were active in at least one assay; those are over-represented in the sample as a whole.
TEST_READOUT: growth (%)
Give a bare numeral; the unit % is implied.

COc1cc2nc(Nc3cccc(C(=O)O)c3)nc(N)c2cc1OC ... 96.3

// next entry
// sample `O=C(CCCCC[P+](c1ccccc1)(c1ccccc1)c1ccccc1)NC(COC(=O)C(Cl)Cl)(COC(=O)C(Cl)Cl)COC(=O)C(Cl)Cl` , its growth was 102

----------
- System: OVCAR-4 ovarian
- PROCEDURE_TEXT: NCI-60 one-dose screen, 48 h
- MEASUREMENT_SETUP: 10 µM
About 83,000 compounds went through this panel and 20% of them were active in at least one assay; those are over-represented in the sample as a whole. The source made the active and inactive calls. The calls were made as follows: active = growth percent below 10; inactive = the rest.
// one of t for active, f for inactive, no free text

Use the examples below as a reference point.
CC(=O)/C(=C/c1ccccc1)C(=O)CC(C)C ... f
CC(=O)c1cc(Br)ccc1O ... f
CCn1cc(C(=O)O)c(=O)c2cnc(N3CCCC3)nc21 ... f
OCC1OC(n2cnc3c(N/N=C\c4ccccn4)ncnc32)C(O)C1O (stereo not drawn) ... f
CC(C)(C#N)Nc1ccccc1 ... f
CCN1CCN(c2nc3ccccc3c3c(=O)c4ccccc4sc23)CC1 ... f

Hello, I am checking results. What call was entered for `O=C1/C(=C\c2ccccc2)CN(C(=O)c2ccccc2F)C/C1=C\c1ccccc1` ?
f

Hello, I am checking results. What call was entered for CC(=O)N1N=C(c2ccc(Cl)cc2)CC1c1sc(Cl)nc1Cl (stereo not drawn) ?
f

----------
- Tested on: MCF7 breast
- PROCEDURE_TEXT: NCI-60 one-dose screen, 48 h
- MEASUREMENT_SETUP: 10 µM
Compounds without any hit were thinned out: in the full panel of roughly 83,000, 20% have a hit. The source made the active and inactive calls. How the source made its calls: active means growth percent below 10; inactive means the rest.
// one of active, inactive, no free text

Use the examples below as a reference point.
Nc1ccc2cc(S(=O)(=O)O)cc(O)c2c1N=Nc1ccc(F)cc1 ... inactive
O=C1NC(=O)N(Cc2ccccc2)CC1Br (centres undefined) ... inactive
COc1ccc(/C(=C2/O[C@@H]([C@H]3COC(C)(C)O3)[C@H]3OC(C)(C)O[C@@H]23)c2cc(OC)c(OC)c(OC)c2)cc1O ... inactive
O=[N+]([O-])c1ccc(Oc2cccnc2)c([N+](=O)[O-])c1 ... inactive
COc1cc(/C=N/NC(=O)c2ccccc2Nc2cccc(C(F)(F)F)c2)cc(OC)c1OC ... active

Could you now look at the following compound, please?
Hello, I am checking results. What call was entered for `c1ccc2c(c1)oc1c3c(ccc12)NCCC3` ?
inactive

----------
- System: SN12C renal
- PROCEDURE_TEXT: NCI-60 one-dose screen, 48 h (100 = growth as untreated, 0 = no growth, -100 = all killed)
- MEASUREMENT_SETUP: 10 µM
The panel holds about 83,000 compounds, 20% with a hit somewhere; the sample as a whole holds those more often.
Give satisfied when the value for growth is at least 50%. Give not satisfied when it is less.

Use the examples below as a reference point.
C[C@]12CC[C@@H]3c4ccc(O)cc4C[C@@H](O)[C@H]3[C@@H]1CC[C@@H]2O ... satisfied
COc1cc(Nc2ncnc(Nc3ccc4c(n3)NC(=O)C(C)(C)O4)n2)cc(OC)c1OC ... not satisfied

Item `O=c1oc2cc(OS(=O)(=O)c3ccccc3)ccc2c2c1CCCCC2` with growth of 50% or above?
satisfied

Item `Cc1ccc(S(=O)(=O)Oc2ccc3c4c(c(=O)oc3c2)CCCCC4)cc1` with growth of 50% or above?
satisfied

----------
Listed here: items and their measured growth.
- System: NCI-H226 lung
- PROCEDURE_TEXT: NCI-60 one-dose screen, 48 h (100 = growth as untreated, 0 = no growth, -100 = all killed)
- MEASUREMENT_SETUP: 10 µM
This is part of a sample that, as a whole, favours compounds with a hit. Of some 83,000 tested, about 20% had one in any assay.
Give a bare numeral; the unit % is implied.

// below: answered compounds
Cc1occc1-c1nnc(SCC(=O)c2ccc(NC(=O)CC(C)C)cc2)o1 ... 109
O=C(O)CC(Cl)C(Cl)CC(=O)O (stereo not drawn) ... 119

// sample `CNc1ccc(CSc2ccc(C)cc2)cc1` , its growth was 32.8

// sample CCOC(=O)C1CCc2c(ccc3ccccc23)N1CCC#N (stereo not drawn) , its growth was 98.7

// sample `O=[N+]([O-])c1cccc(N=Cc2ccc3c(c2)OCO3)c1` , its growth was 104

// sample COc1ccc(C2=NN(C(=O)c3ccc(S(C)(=O)=O)cc3)C(c3ccc(OC)c(OC)c3)C2)c(OC)c1 (stereo not drawn) , its growth was 85.5

// sample `COC(=O)C1=NNC(=S)N(c2cc(C)[nH]n2)C(=O)C1` , its growth was 99.7

// sample `N=C(N)c1ccc(-c2ccc(-c3cccs3)s2)cc1` , its growth was 82.3

----------
- Test system: UACC-62 melanoma
- PROCEDURE_TEXT: NCI-60 one-dose screen, 48 h
- MEASUREMENT_SETUP: 10 µM
This is part of a sample that, as a whole, favours compounds with a hit. Of some 83,000 tested, about 20% had one in any assay. Active and inactive are the calls of the source. How the source made its calls: active means growth percent below 10; inactive means the rest.
// one of active, inactive, no free text

Use the examples below as a reference point.
CN(C)c1ccc(/C=C/C=N/NC(=O)c2cc(O)c(O)c(O)c2)cc1 ... inactive
NC(=O)CC1(c2ccccc2)CCCCC1 ... inactive

Hello, I am checking results. What call was entered for `COc1ccc(Nc2ccnc(NCCNc3ccnc4cc(Cl)ccc34)n2)cc1` ?
inactive

Hello, I am checking results. What call was entered for `O=C1/C(=C\c2ccc(F)cc2)CN(C(=O)c2ccccc2F)C/C1=C\c1ccc(F)cc1` ?
active

Hello, I am checking results. What call was entered for `COc1ccc([N+](=O)[O-])c(C(=O)O)c1` ?
inactive

Hello, I am checking results. What call was entered for `COc1ccc2c(c1)/C(=C\c1c[nH]c3ccc(OC)cc13)C(=O)N2` ?
inactive

Hello, I am checking results. What call was entered for `Cc1ccc(-c2nc(/C=C3/C(=O)N(C)c4ccc(F)cc43)c3ccccn23)cc1` ?
inactive

Hello, I am checking results. What call was entered for `N=C(N)c1ccc(-c2ccc(-c3cccs3)s2)cc1` ?
inactive

Hello, I am checking results. What call was entered for COc1ccc(-c2nsc3c2NC(=O)CC3c2ccc(F)cc2)cc1 (stereo unspecified) ?
inactive

Hello, I am checking results. What call was entered for `CCCCCCCCCCCCCCCCCC(=O)OCCCCCCC` ?
inactive

Hello, I am checking results. What call was entered for `c1ccc([I+]c2ccccc2)cc1` ?
inactive

----------
- Test system: T-47D breast
- PROCEDURE_TEXT: NCI-60 one-dose screen, 48 h (100 = growth as untreated, 0 = no growth, -100 = all killed)
- MEASUREMENT_SETUP: 10 µM
About 83,000 compounds went through this panel and 20% of them were active in at least one assay; those are over-represented in the sample as a whole.
Listed here: items and their measured growth.
Give a bare numeral; the unit % is implied.

O=C(Nc1cccc(-n2cc(-c3ccncc3)c(-c3cc(O)cc(Cl)c3)n2)c1)c1cc(C(F)(F)F)cc(C(F)(F)F)c1 ... 26.3

// next entry
// sample COc1cc([C@@H]2c3cc4c(cc3C(Br)[C@H]3COC(=O)[C@H]23)OCO4)cc(OC)c1OC (some centres undefined) , its growth was 31.3

----------
- System: TK-10 renal
- PROCEDURE_TEXT: NCI-60 one-dose screen, 48 h
- MEASUREMENT_SETUP: 10 µM
The panel holds about 83,000 compounds, 20% with a hit somewhere; the sample as a whole holds those more often. The source made the active and inactive calls. The calls were made as follows: active = growth percent below 10; inactive = the rest.
// one of active, inactive, no free text

O=C1/C(=C\c2ccc(Br)cc2)CN(C(=O)c2ccccc2F)C/C1=C\c1ccc(Br)cc1 ... inactive
O=C(Nc1ccncc1)C(=O)c1cn(S(=O)(=O)c2cccc(Cl)c2)c2ccccc12 ... inactive
CN(C)CCCn1c(=O)c2ccccc2c2cnc3[nH]ccc3c21 ... active

Hello, I am checking results. What call was entered for `COc1cc2cc3c(nc2cc1OC)CCN3Cc1ccc(NC(=O)Nc2cc(C(F)(F)F)cc(C(F)(F)F)c2)cc1` ?
inactive

----------
- System: SW-620 colon
- PROCEDURE_TEXT: NCI-60 one-dose screen, 48 h
- MEASUREMENT_SETUP: 10 µM
Compounds without any hit were thinned out: in the full panel of roughly 83,000, 20% have a hit. Calls of active or inactive are those of the source. Rule for the calls: active = growth percent below 10; inactive = the rest.
// one of 1 (yes) for active, 0 (no) for inactive, no free text

Use the examples below as a reference point.
FC(F)(F)c1ccc(-c2cnc(-n3cc(COCCN4CCCCC4)nn3)nc2NC2CCCCCC2)cc1 ... 1 (yes)
COc1cc(-c2nc(-c3nnc(-c4ccc(F)c(Cl)c4)o3)c3ccccn23)cc(OC)c1OC ... 0 (no)
C#Cc1ccc(-n2c(/C=C/c3ccc4ccccc4n3)nc3ncccc3c2=O)cc1 ... 1 (yes)
CCCCCCc1cc(N=Nc2ccc(S(=O)(=O)Nc3cc(C)nc(C)n3)cc2)c(O)cc1O ... 0 (no)
O=C(Nc1cccc(-n2cc(-c3ccncc3)c(-c3ccc(O)c(Cl)c3)n2)c1)Nc1cccc(C(F)(F)F)c1 ... 0 (no)

Could you now look at the following compound, please?
Hello, I am checking results. What call was entered for `COc1ccc(-c2nc3sc(-c4ccc(OC)cc4)c(-c4ccc(OC)cc4)n3c2/C=C/c2ccc(C(C)C)cc2)cc1` ?
0 (no)
